Listing of pIC50 toward Matrix metalloproteinase-9 (Homo sapiens), each taken from a published source.
pIC50: −log10 of the molar value.
Think of 7 as a floor: if pIC50 stands on it or above, it is TRUE; beneath it, FALSE.

The examples below pair each entry with its known result.
- O=C1C(S(=O)(=O)c2ccc(Oc3ccc(OC(F)(F)F)cc3)cc2)CCCCN1O (stereo not shown): TRUE
- O=C(O)[C@H]1[C@H](Cn2nnc3ccc(C(F)(F)F)cc3c2=O)CC[C@@H]1C(=O)c1ccc(OCCC2CCOCC2)cc1 (stereo in doubt): FALSE
- CN(c1cccn(O)c1=O)S(=O)(=O)c1ccc(Oc2ccc(Cl)cc2)cc1: TRUE
- CC(C)[C@@H](NS(=O)(=O)N1CCN(c2ccc(C#Cc3ccc4[nH]c(=O)n(Cc5cccc(F)c5)c(=O)c4c3)cc2)CC1)C(=O)O: FALSE
- O=C(O)[C@H](CSC(c1ccccc1)(c1ccccc1)c1ccccc1)NS(=O)(=O)c1ccc2c(c1)Sc1ccccc1O2: FALSE
- O=C(O)[C@@H]1[C@@H](Cn2nnc3ccc(C(F)(F)F)cc3c2=O)CC[C@H]1C(=O)c1ccc(OCc2cccc(C(F)(F)F)c2)cc1 (single isomer, unassigned): FALSE

With those in mind, consider the next compound.
// inclusive: pIC50 at least 7? input: CC(C)[C@@H](NS(=O)(=O)N1CCN(c2ccc(C#Cc3ccc4[nH]c(=O)n(CC#N)c(=O)c4c3)cc2)CC1)C(=O)O
FALSE

---

// read-out log10(IC50), gathered for Matrix metalloproteinase-9 (Homo sapiens) from published studies
Please interpret these as log10 of IC50 where IC50 is in nM.

Worked examples, 8 molecules total:
* COc1ccc(-c2cccc(S(=O)(=O)N3CC[C@@H](NC(=O)CCC(C)C)C[C@@H]3C(=O)NO)c2)cc1 | 2.62
* COc1ccc(C(=O)N[C@@H]2CCN(S(=O)(=O)c3ccc(OC)cc3)[C@@H](C(=O)NO)C2)cc1 | 0.11
* O=C1[C@H](NS(=O)(=O)c2ccc(Oc3ccncc3)cc2)CC=CCN1O | 1.20
* O=C(O)[C@@H]1[C@@H](Cn2nnc3ccc(C(F)(F)F)cc3c2=O)CC[C@H]1C(=O)c1ccc(OCC2CCCC2)cc1 (single isomer, unassigned) | 1.72
* Cc1cccc(C(=O)NO)c1N(C)S(=O)(=O)c1ccc(OCCCNC(=O)c2ccc3c(c2)OCO3)cc1 | 1.80
* O=C(CC(CCn1nnc2ccccc2c1=O)C(=O)O)c1cc2cc(OCc3ccccc3)ccc2o1 (single isomer, unassigned; (+)) | 4.43
* CCC#CCOc1ccc(S(=O)(=O)C2(C(=O)NO)CCN(Cc3ccc(Br)cc3)CC2)cc1 | 2.60
* CCCCCCCCN1CC(C(=O)O)N(S(=O)(=O)c2ccc(NC(=O)c3ccc(Cl)cc3)cc2)CC1=O (centres unmarked) | 0.51

Kindly consider the entry below.
Record CC1=CC[C@@H](NS(=O)(=O)c2ccc(Oc3ccc(Cl)cc3)cc2)C(=O)N(O)C1 ; system Matrix metalloproteinase-9 (Homo sapiens); log10(IC50) = -0.17

---

Please find below IC50 measurements for Matrix metalloproteinase-9 (Homo sapiens), combined from several publications.
Note: every record was labeled by where its IC50 sits among low (below 60 nM), mid (60 nM to below 900 nM), high (900 nM or more)

Here are 3 compounds together with their reported answers.
• O=C(O)c1c[nH]c(CNCc2ccc(OCc3cccnc3)cc2)n1 = high
• O=C(O)c1csc(CN(Cc2ccc(F)cc2)Cc2ccc(-c3ccccc3)cc2)n1 = high
• CC(C)[C@@H](NS(=O)(=O)N1CCN(c2ccc(C#Cc3ccc(OCCOC(C)(C)C)c(C(=O)NCC#N)c3)cc2)CC1)C(=O)O = high

Band for Cc1cc(C)c(N(Cc2ccccc2)S(=O)(=O)c2ccc(OCCNC(=O)c3cc4ccccc4o3)cc2)c(C(=O)NO)c1 ?
high

Hi there! Could you help me figure out the category for C[C@@H](NS(=O)(=O)N1CCN(c2ccc(C#Cc3ccc4c(c3)C(c3ccco3)=CCC4)cc2)CC1)C(=O)O please?
high

Which category fits this record: O=C1[C@H](NS(=O)(=O)Cc2ccc(Cl)cc2)CC=CCN1O
high

Could you tell me which band O=C(NO)C(O)(CO)CS(=O)(=O)c1ccc(Sc2ccccc2)cc1 (stereo not drawn) belongs to?
mid

Tag the class for O=C(NO)[C@H](O)CS(=O)(=O)c1ccc(Oc2ccccc2)cc1
mid

Hello team, could you let me know which band the following compound falls into: COc1ccc(-c2ccc(S(=O)(=O)N(OCCOCCN3CCNCC3)[C@H](CCNC(=O)OCc3ccccc3)C(=O)NO)cc2)cc1
low

Class? Entry: O=C1C(NS(=O)(=O)c2ccc(Oc3ccc(Cl)cc3)cc2)CCCCN1O (stereo not drawn)
low

Place this compound in its band: O=C(O)[C@H]1[C@H](Cn2nnc3ccc(C(F)(F)F)cc3c2=O)CC[C@@H]1C(=O)c1ccc(OCCCC2CCCCC2)cc1 (racemic)
high

Category lookup for the compound COc1ccc(S(=O)(=O)N2CC[C@H](NC(C)=O)C[C@H]2C(=O)NO)cc1
mid

Form: Item = COc1ccc(-c2ccc(S(=O)(=O)Cn3cccc(O)c3=O)cc2)cc1 ; Class = ?
high

---

Please find below IC50 measurements for Matrix metalloproteinase-9 (Homo sapiens, UniProt P14780), combined from several publications.
Definition: the class of an entry is the range in I = under 200 nM, II = from 200 nM up to 1000 nM, III = 1000 nM and over that contains its IC50.

• O=C(NO)C(O)CS(=O)(=O)c1ccc(Oc2ccccc2)cc1 (centres unmarked) = I
• O=C(O)[C@H]1[C@H](Cn2nnc3ccc(C(F)(F)F)cc3c2=O)CC[C@@H]1C(=O)c1ccc(OCCCc2ccccc2)cc1 (racemic) = II

Each compound maps to one class by IC50. Which class for CC(C)[C@@H](NS(=O)(=O)c1ccc(-c2ccc(NC(=O)c3ccc4ccccc4c3)cc2)cc1)C(=O)O ?
III

Class label required: O=C(O)[C@H](CCc1ccccc1)NS(=O)(=O)c1ccc2c(c1)Sc1ccccc1O2
III

Input Cc1cccc(COc2ccc(C(=O)[C@H]3CC[C@@H](Cn4nnc5ccc(C)cc5c4=O)[C@@H]3C(=O)O)cc2)c1 (racemic) ; output its category
II

Please report the category associated with CCC(C)[C@H](NS(=O)(=O)c1ccc(-c2ccc(NC(=O)c3ccc4ccccc4c3)cc2)cc1)C(=O)O (some centres unmarked) , nothing else.
III

Record O=C(O)[C@H]1[C@H](Cn2nnc3ccccc3c2=O)CC[C@@H]1C(=O)c1ccc(OCCC2CCCCC2)cc1 (racemic) — which class?
II

Pick a category. Item: CC(C)CCC(=O)N[C@@H]1CCN(S(=O)(=O)c2ccc(-c3ccc(Cl)cc3)cc2)[C@@H](C(=O)NO)C1
I

---

// note: pIC50 values for Matrix metalloproteinase-9 (Homo sapiens, UniProt P14780) were reported in different studies
Note on pIC50: it is the negative log10 of concentration, concentration in mol/L.

Guide cases for pIC50, answers given:
- Cc1ccc(Oc2ccc(N(Cc3cccn(O)c3=S)S(C)(=O)=O)cc2)cc1: 6.31
- CC#CCOc1ccc(S(=O)(=O)C2(C(=O)NO)CCCN(CC)C2)cc1 (stereo not drawn): 5.68
- CC#CCOc1ccc(S(=O)(=O)C2(C(=O)NO)CCN(C(=O)c3ccc(OC)cc3)CC2)cc1: 6.37

Tested system Matrix metalloproteinase-9 (Homo sapiens, UniProt P14780); pIC50 recorded for CC(C)CCC(=O)N[C@@H]1CCN(S(=O)(=O)c2cccs2)[C@@H](C(=O)NO)C1 was 7.12

Summary: Cc1ccc(Oc2ccc(N(Cc3cc(C)cn(O)c3=O)S(C)(=O)=O)cc2)cc1 , Matrix metalloproteinase-9 (Homo sapiens, UniProt P14780), pIC50 = 7.36

Entry COc1ccc(-c2ccc(S(=O)(=O)N3CC[C@@H](NCCCC(C)C)C[C@@H]3C(=O)NO)cc2)cc1 , Matrix metalloproteinase-9 (Homo sapiens, UniProt P14780) data, pIC50 value: 7.72

Field pIC50 (system: Matrix metalloproteinase-9 (Homo sapiens, UniProt P14780)) for entry CC#CCOc1ccc(S(=O)(=O)C2(C(=O)NO)CCN(C(=O)c3cccs3)CC2)cc1 = 6.09

---

Multiple publications report IC50 for Matrix metalloproteinase-9 (Homo sapiens); what follows is a combined list.
# number only, unit nM dropped from output

Past entries and their recorded results:
* O=C(O)[C@@H]1[C@@H](Cn2nnc3ccc(C(F)(F)F)cc3c2=O)CC[C@H]1C(=O)c1ccc(SCc2ccc(Cl)c(Cl)c2)cc1 (single isomer, unassigned) | 780
* O=C(O)[C@@H]1[C@@H](Cn2nnc3ccc(C(F)(F)F)cc3c2=O)CC[C@H]1C(=O)c1cc2cc(OCCc3ccccc3)ccc2o1 (single isomer, unassigned; enantiomer 2) | 680
* CC(C)CCC(=O)N[C@@H]1CCN(S(=O)(=O)c2ccc([N+](=O)[O-])cc2)[C@@H](C(=O)NO)C1 | 740
* Cc1ccc(Oc2ccc(N(Cc3cc(-c4ccccc4)cn(O)c3=O)S(C)(=O)=O)cc2)cc1 | 317
* CC#CCOc1ccc(SC2(C(=O)NO)CCN(Cc3ccc(Br)cc3)CC2)cc1 | 2060

Summary: O=C(CC(CCn1nnc2ccccc2c1=O)C(=O)O)c1cc2cc(OCCCC(F)(F)F)ccc2o1 (single isomer, unassigned; enantiomer 2) , Matrix metalloproteinase-9 (Homo sapiens), IC50 = 3800

I looked up COc1cccc(COc2ccc(C(=O)[C@H]3CC[C@@H](Cn4nnc5ccc(C)cc5c4=O)[C@@H]3C(=O)O)cc2)c1 (racemic) and its IC50 for Matrix metalloproteinase-9 (Homo sapiens) was 76
